# Test system: BT-549 breast
# protocol_details: NCI tumour cell line growth inhibition, 48 h; in the data active = GI50 below about 0.43 µM; inactive = the rest
Answer with one of the outcomes active, inactive

Look over these answered cases.
compound	discrete_label
CN(C)CCOc1nc2c3cccnc3cc(-c3cccc(Cl)c3)c2c2ncccc12	inactive
O=C(NCCN1CCOCC1)Nc1ccc(-c2cc3c(Nc4ccc(Oc5cccc(C(F)(F)F)c5)c(Cl)c4)ncnc3s2)cc1	inactive
CC(F)(F)c1cc(F)ccc1-c1sc2cc(O)ccc2c1Oc1ccc(/C=C/C(=O)O)cc1	inactive

Turning now to a further compound:
Ask: For C[C@H]1CCC/C=C/[C@@H]2C[C@H](O)C[C@H]2[C@H](O)[C@@H](S(=O)CCN)CC(=O)O1 (some centres undefined) , which call appears in the assay record?
Reply: active
